Test system: DeltatarO mutant
experimental details: S. aureus survival, RN4220 and DeltatarO strains – OD600, teichoic acid synthesis inhibitors, primary screen (AID 463173)
conditions: S. aureus RN4220 wild type/DeltatarO growth, OD600, 18 h, screened at 18.75 µg/mL (by protocol)
Hit rate of the full screen: of about 52,000 compounds, about 4,300 (8.3%) were called active. No stated cut-off is given here; in the data, active means survival mostly below about 52% (no sharp cut-off); inactive means mostly above about 56%. For the sample, actives were picked, then their nearest neighbours and some compounds at random.
Labels: active, inactive

{"molecule": "CC(C)(C)c1ccc(Cn2c(=N)n(CC(O)c3ccco3)c3ccccc32)cc1 (stereo unspecified)", "class assignment": "active"}
{"molecule": "N=c1n(CCN2CCCCC2)c2ccccc2n1CC(O)c1ccc2c(c1)OCO2 (stereo unspecified)", "class assignment": "inactive"}
{"molecule": "CCc1nn2c(=O)cc(COC(=O)C(CC)c3ccccc3)nc2s1 (stereo unspecified)", "class assignment": "inactive"}
{"molecule": "Cc1ccc(Cn2c(=N)n(CC(=O)c3ccccc3)c3ccccc32)cc1", "class assignment": "inactive"}
{"molecule": "Cc1ccc(NC(=O)C(C)Sc2nc(=O)cc(N)n2-c2cccc(C)c2)cc1 (stereo unspecified)", "class assignment": "inactive"}
{"molecule": "CCc1cc(C(=O)NCc2ccc(F)cc2)no1", "class assignment": "inactive"}
